From: patent US20020099086A1

In this section, each of the molecules is paired with its reported Residual mutagenic activity (%) observed for 2-NF.
Test system: Salmonella typhimurium strain TA 100
Test: Ames bio-assay, antimutagenic activity against 2-nitrofluorene (2-NF)
Format: cell-based
Settings: 100 μg compound added; 1 μg 2-NF per plate
Response body: numeric value in %, unit text excluded.

Solved cases (3 shown):
CC=Cc1cc(OC)c2c(c1)C(C)C(c1ccc3c(c1)OCO3)O2 (single isomer, unassigned; (-))
95
C/C=C/c1cc(OC)c2c(c1)[C@H](C)[C@@H](c1ccc(O)c(OC)c1)O2
85
CC=Cc1cc(OC)c2oc(-c3ccc4c(c3)OCO4)c(C)c2c1
93

Consider C/C=C/c1cc(OC)c2oc(-c3ccc(O)c(OC)c3)c(C)c2c1 . Its measured Residual mutagenic activity (%) observed for 2-NF is 0

----------
Tested on: brine shrimp
Test: Brine shrimp bioassay (cytotoxicity)
Assay type: in vivo
Conditions: 500 ppm
result.type: “Death Rate” After 24 Hours (%)

Below, each entry is followed by its recorded “Death Rate” After 24 Hours (%) result.
CC=Cc1cc(OC)c2c(c1)C(C)C(c1ccc3c(c1)OCO3)O2 (single isomer, unassigned; (-))
42%
COc1cc(C=O)ccc1O
12%
C/C=C/c1cc(OC)c2oc(-c3ccc(O)c(OC)c3)c(C)c2c1
38%
C=C1/C=C/[C@@H](C(C)C)CC/C(C)=C/CC1
100%
COc1cc([C@@H]2c3cc4c(cc3[C@H](O)[C@H]3COC(=O)[C@H]23)OCO4)cc(OC)c1OC [Podophyllotoxin, reference compound]
100%
COc1cc(/C=C/CO)ccc1O
15%
COc1cc2c(cc1C)C(=O)[C@H](O)C[C@@H]2C
100%
C/C=C/c1cc(OC)c2c(c1)[C@H](C)[C@@H](c1ccc(O)c(OC)c1)O2
96%

In plain terms, COc1ccc2cc3c4c(cc(OC)c(OC)c4c2c1)C(=O)N3 has a documented “Death Rate” After 24 Hours (%) of 29%

# “Death Rate” After 24 Hours (%) of CC=Cc1cc(OC)c2oc(-c3ccc4c(c3)OCO4)c(C)c2c1 = 20%

----------
This listing pairs compounds with measured LC50.
Tested on: brine shrimp
Assay: Brine shrimp bioassay (cytotoxicity)
Format: in vivo
Conditions: brine shrimp, 24 hours

COc1cc2c(cc1C)C(=O)[C@H](O)C[C@@H]2C
<10 ppm
COc1ccc2cc3c4c(cc(OC)c(OC)c4c2c1)C(=O)N3
>500 ppm
CC=Cc1cc(OC)c2c(c1)C(C)C(c1ccc3c(c1)OCO3)O2 (single isomer, unassigned; (-))
>500 ppm
COc1cc(/C=C/CO)ccc1O
>500 ppm
COc1cc([C@@H]2c3cc4c(cc3[C@H](O)[C@H]3COC(=O)[C@H]23)OCO4)cc(OC)c1OC [Podophyllotoxin, reference compound]
<10 ppm
C/C=C/c1cc(OC)c2oc(-c3ccc(O)c(OC)c3)c(C)c2c1
>500 ppm
CC=Cc1cc(OC)c2oc(-c3ccc4c(c3)OCO4)c(C)c2c1
>500 ppm
C/C=C/c1cc(OC)c2c(c1)[C@H](C)[C@@H](c1ccc(O)c(OC)c1)O2
<10 ppm

Lab note: next compound to report on.
COc1cc(C=O)ccc1O tested on brine shrimp gave LC50: >500 ppm

----------
Reported melting point is given for each of the following compounds.

// sample COc1cc(-c2oc3c(OC)cc(/C=C/CO)cc3c2C)ccc1O , its melting point was 180 to 183 °C
